System: RWP1 cells
test_method_notes: Effect of anti-FZD5 Fabs on proliferation of pancreatic cancer cell lines (percent growth inhibition)
Format: cell-based, human
assay_context: Fab 10 μg/ml
reported_property: percent growth inhibition, RWP1 10 μg/ml (%)
Kindly answer with a numeric value in %, unit omitted.

Known percent growth inhibition, RWP1 10 μg/ml results, listed for orientation:
Fab-2900: anti-FZD5 Fab with antibody variable region Fv-2900; CDR SEQ ID NOs: 35, 36, 39, 78, 115, 153 (antibody, V domains shown) VH: EVQLVESGGGLVQPGGSLRLSCAASGFNLSSYYIHWVRQAPGKGLEWVASISSSSSSTSYADSVKGRFTISADTSKNTAYLQMNSLRAEDTAVYYCARGALDYWGQGTLVTVSS VL: DIQMTQSPSSLSASVGDRVTITCRASQSVSSAVAWYQQKPGKAPKLLIYSASSLYSGVPSRFSGSRSGTDFTLTISSLQPEDFATYYCQQWYSGSSLFTFGQGTKVEIK = −29.81
Fab-2920: anti-FZD5 Fab with antibody variable region Fv-2920; CDR SEQ ID NOs: 35, 36, 59, 98, 135, 170 (antibody, V domains shown) VH: EVQLVESGGGLVQPGGSLRLSCAASGFNISYYYIHWVRQAPGKGLEWVASIYPSSGSTSYADSVKGRFTISADTSKNTAYLQMNSLRAEDTAVYYCARGGMDYWGQGTLVTVSS VL: DIQMTQSPSSLSASVGDRVTITCRASQSVSSAVAWYQQKPGKAPKLLIYSASSLYSGVPSRFSGSRSGTDFTLTISSLQPEDFATYYCQQWFAGALITFGQGTKVEIK = −3.09
Fab-2922: anti-FZD5 Fab with antibody variable region Fv-2922; CDR SEQ ID NOs: 35, 36, 61, 99, 137, 171 (antibody, V domains shown) VH: EVQLVESGGGLVQPGGSLRLSCAASGFNIYSSYMHWVRQAPGKGLEWVASISPYSGYTSYADSVKGRFTISADTSKNTAYLQMNSLRAEDTAVYYCARTVRGSKKPYFSGWAMDYWGQGTLVTVSS VL: DIQMTQSPSSLSASVGDRVTITCRASQSVSSAVAWYQQKPGKAPKLLIYSASSLYSGVPSRFSGSRSGTDFTLTISSLQPEDFATYYCQQSFVYPYLITFGQGTKVEIK = 7.59
Fab-2926: anti-FZD5 Fab with antibody variable region Fv-2926; CDR SEQ ID NOs: 35, 36, 65, 103, 141, 173 (antibody, V domains shown) VH: EVQLVESGGGLVQPGGSLRLSCAASGFNIYSSYMHWVRQAPGKGLEWVASIYPSSSSTSYADSVKGRFTISADTSKNTAYLQMNSLRAEDTAVYYCARGGLDYWGQGTLVTVSS VL: DIQMTQSPSSLSASVGDRVTITCRASQSVSSAVAWYQQKPGKAPKLLIYSASSLYSGVPSRFSGSRSGTDFTLTISSLQPEDFATYYCQQWYHGGSLFTFGQGTKVEIK = 40.20
Fab-2903: anti-FZD5 Fab with antibody variable region Fv-2903; CDR SEQ ID NOs: 35, 36, 42, 81, 118, 155 (antibody, V domains shown) VH: EVQLVESGGGLVQPGGSLRLSCAASGFNLSYYYIHWVRQAPGKGLEWVASIYPYSSYTSYADSVKGRFTISADTSKNTAYLQMNSLRAEDTAVYYCARGAIDYWGQGTLVTVSS VL: DIQMTQSPSSLSASVGDRVTITCRASQSVSSAVAWYQQKPGKAPKLLIYSASSLYSGVPSRFSGSRSGTDFTLTISSLQPEDFATYYCQQWGGGSSLFTFGQGTKVEIK = 17.38
Fab-2927: anti-FZD5 Fab with antibody variable region Fv-2927; CDR SEQ ID NOs: 35, 36, 66, 104, 142, 174 (antibody, V domains shown) VH: EVQLVESGGGLVQPGGSLRLSCAASGFNIYYSSMHWVRQAPGKGLEWVASIYPSYGYTSYADSVKGRFTISADTSKNTAYLQMNSLRAEDTAVYYCARYGYYGFDYWGQGTLVTVSS VL: DIQMTQSPSSLSASVGDRVTITCRASQSVSSAVAWYQQKPGKAPKLLIYSASSLYSGVPSRFSGSRSGTDFTLTISSLQPEDFATYYCQQWGSHGYLITFGQGTKVEIK = 70.38
Fab-2913: anti-FZD5 Fab with antibody variable region Fv-2913; CDR SEQ ID NOs: 35, 36, 52, 91, 128, 165 (antibody, V domains shown) VH: EVQLVESGGGLVQPGGSLRLSCAASGFNISYSSIHWVRQAPGKGLEWVASIYPYSSSTSYADSVKGRFTISADTSKNTAYLQMNSLRAEDTAVYYCARYGYYGLDYWGQGTLVTVSS VL: DIQMTQSPSSLSASVGDRVTITCRASQSVSSAVAWYQQKPGKAPKLLIYSASSLYSGVPSRFSGSRSGTDFTLTISSLQPEDFATYYCQQWGVSHYLFTFGQGTKVEIK = 68.29

Next up:
Query block: Consider the molecule shown here: Fab-2909: anti-FZD5 Fab with antibody variable region Fv-2909; CDR SEQ ID NOs: 35, 36, 48, 87, 124, 161 (antibody, V domains shown) VH: EVQLVESGGGLVQPGGSLRLSCAASGFNISSSYMHWVRQAPGKGLEWVASISSSSGYTSYADSVKGRFTISADTSKNTAYLQMNSLRAEDTAVYYCARTVRGSKKPYFSGWAMDYWGQGTLVTVSS VL: DIQMTQSPSSLSASVGDRVTITCRASQSVSSAVAWYQQKPGKAPKLLIYSASSLYSGVPSRFSGSRSGTDFTLTISSLQPEDFATYYCQQSWSYHYLITFGQGTKVEIK What is its recorded percent growth inhibition, RWP1 10 μg/ml?
Result block: 14.89
